Source: paper PMC10786891

# system under test: T1, EsCas13d, nuclease-dead (Eubacterium siraeum, UniProt B0MS50, R295A;H300A;R849A;H854A)
# T1 sequence: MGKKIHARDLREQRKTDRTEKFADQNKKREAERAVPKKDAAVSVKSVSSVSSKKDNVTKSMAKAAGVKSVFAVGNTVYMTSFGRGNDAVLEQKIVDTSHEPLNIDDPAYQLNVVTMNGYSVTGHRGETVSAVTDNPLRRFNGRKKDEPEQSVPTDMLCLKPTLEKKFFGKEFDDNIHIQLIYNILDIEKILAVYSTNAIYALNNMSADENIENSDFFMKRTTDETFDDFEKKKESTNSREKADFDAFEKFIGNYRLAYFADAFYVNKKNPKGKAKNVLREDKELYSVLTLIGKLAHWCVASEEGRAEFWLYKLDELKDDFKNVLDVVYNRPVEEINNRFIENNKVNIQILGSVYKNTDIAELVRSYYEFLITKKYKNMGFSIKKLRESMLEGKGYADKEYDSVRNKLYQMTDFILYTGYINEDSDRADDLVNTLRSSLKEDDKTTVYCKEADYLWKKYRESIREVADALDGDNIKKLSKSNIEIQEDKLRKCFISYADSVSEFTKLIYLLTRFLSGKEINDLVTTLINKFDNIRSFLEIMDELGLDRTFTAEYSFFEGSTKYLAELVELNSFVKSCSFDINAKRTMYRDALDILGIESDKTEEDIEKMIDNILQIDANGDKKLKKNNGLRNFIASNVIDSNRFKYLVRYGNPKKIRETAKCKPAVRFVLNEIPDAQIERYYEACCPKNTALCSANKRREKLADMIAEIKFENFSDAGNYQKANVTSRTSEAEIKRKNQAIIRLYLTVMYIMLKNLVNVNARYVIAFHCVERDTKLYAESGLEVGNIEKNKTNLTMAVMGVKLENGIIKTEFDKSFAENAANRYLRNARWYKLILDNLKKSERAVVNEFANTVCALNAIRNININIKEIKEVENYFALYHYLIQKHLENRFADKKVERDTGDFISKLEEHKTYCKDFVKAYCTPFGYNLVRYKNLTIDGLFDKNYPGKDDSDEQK
# protocol description: crRNA (strand 1, pre-loaded); Mg2+; 40 mM Tris-HCl pH 7.5, 150 mM NaCl, 6 mM MgCl2, 1 mM DTT, 0.1% Tween-20, 0.2 mg/ml BSA; 25 C; 10 min per concentration, then washed
# protocol conditions: tags: His6-TwinStrep-SUMO cleaved; N-terminal SNAP kept (SNAP-Surface 488); label: 3' end held by stalled T7 RNA polymerase
measure name: Kd (nM)
State the answer as a number, implicitly in nM.

binder: target 3 U2C,U7G (mixed) RNA 1: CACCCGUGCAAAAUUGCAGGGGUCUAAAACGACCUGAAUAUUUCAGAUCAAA RNA 2: GGGAAUGGAUCCACAUCUACGAAUUCGUUUUUGAUCUGAAAUAUGCAGGCCUGCAGAUCGGAAGAGCACACGU
reported: 86

binder: target 1 insG 3' of 22,insA 3' of 21 (mixed) RNA 1: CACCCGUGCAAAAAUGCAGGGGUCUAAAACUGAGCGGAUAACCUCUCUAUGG RNA 2: GGGAAUGGAUCCACAUCUACGAAUUCGUACGCAAUAGAGAGGUUAUCCGCUCACCGAGAUCGGAAGAGCACACGU
reported: 27.4

binder: target 2 MT 5'PFS GUC 3'PFS CGA (mixed) RNA 1: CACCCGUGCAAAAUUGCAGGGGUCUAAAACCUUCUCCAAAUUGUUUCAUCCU RNA 2: GGGAAUGGAUCCACAUCUACGAAUUCGUCAGGAUGAAACAAUUUGGAGAAGCGAAGAUCGGAAGAGCACACGU
reported: 8.7

// next entry
Request: Please supply the value of reported Kd for the item target 3 insC 3' of 22,insC 3' of 3 (mixed) RNA 1: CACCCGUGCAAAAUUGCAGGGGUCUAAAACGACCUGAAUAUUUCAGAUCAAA RNA 2: GGGAAUGGAUCCACAUCUACGAAUUCGUUUCUUGAUCUGAAAUAUUCAGGCUCUGCAGAUCGGAAGAGCACACGU
Response: 33
